Values compiled from ChEMBL document CHEMBL4118049.

Species: Danio rerio
Test: Toxicity in 7-days post fertilized zebra fish larvae after 1.5 to 24 hrs by microscopic analysis
Format: organism-based
Conditions: zebrafish, in vivo
Would you please tag the item True when its MTD is 6 µM or above, and False when it is below?

Solved entries:
CC1=C2[C@H](/C=C(\C)C(=O)O)CC[C@@H](C)[C@H]2CC1 : True
C=C(C)[C@H](CC=C(C)C)Cc1c(O)cc(O)c2c1O[C@H](c1ccc(O)cc1O)CC2=O : True
CN1C(=O)CN=C(c2ccccc2)c2cc(Cl)ccc21 : True
O=C(/C=C/C=C/c1ccc2c(c1)OCO2)N1CCCCC1 : True
C=C[C@]1(C)C=C2CC[C@@H]3[C@](C)(CCC[C@@]3(C)C(=O)O)[C@H]2CC1 : False
CC(C)=CC[C@]12Oc3cc(O)c([C@H]4C=C(C)C[C@H](c5ccc(O)cc5O)[C@H]4C(=O)c4ccc(O)cc4O)c(O)c3C(=O)[C@@]1(O)Oc1cc(O)ccc12 : False

Next item in the queue.
Query block: Decide: is the reported value of MTD for C=CCc1ccc(O)c(-c2cc(CC=C)ccc2O)c1 equal to or greater than 6 µM?
Result block: False
